Task for the reader: assign each of the following binders its reported PBMC IC50.
TESTED_TARGET: T1, Human CD40L, membrane form, on cells (Jurkat D1.1 cells; activated primary human T cells) (human, UniProt P29965 1-261)
T1 sequence: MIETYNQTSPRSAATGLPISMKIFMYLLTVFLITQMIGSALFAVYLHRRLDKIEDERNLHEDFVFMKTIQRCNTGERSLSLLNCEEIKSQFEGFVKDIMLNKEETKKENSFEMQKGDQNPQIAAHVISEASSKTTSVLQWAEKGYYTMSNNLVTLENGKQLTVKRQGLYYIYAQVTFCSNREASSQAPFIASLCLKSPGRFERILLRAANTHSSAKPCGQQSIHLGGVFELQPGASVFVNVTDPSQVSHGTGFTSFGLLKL
PROTOCOL: cell-based or functional assay
Number first, unit second.

BINDER | PBMC IC50
Clone 348 - Affinity Mature variant (designed binder, Secreted His8-tagged form) AIEVKDVTDTTALITWSDDIGLYVWCELTYGIKDVPGDRTTIDLWFHQAWYSIGNLKPDTEYEVSLICRRGDMSSNPAKETFTTGGGTLGHHHHHHHH | 1 nM
Clone 342 - Affinity Mature variant (w/WT FG loop) (designed binder, Secreted His8-tagged form) AIEVKDVTDTTALITWSDDFGEYVWCELTYGIKDVPGDRTTIDLWYHHAHYSIGNLKPDTEYEVSLICRRGDMSSNPAKETFTTGGGTLGHHHHHHHH | 0.7 nM

Now for a further binder.
Per the records, this binder ( Clone 309 - Parental clone isolated from naive Tn3 library (designed binder, Secreted His8-tagged form purified on Ni-NTA) AIEVKDVTDTTALITWSDEFGHYDGCELTYGIKDVPGDRTTIDLWWHSAWYSIGNLKPDTEYEVSLICYTDQEAGNPAKETFTTGGGTLGHHHHHHHH ) has PBMC IC50 equal to 226 nM

// provenance: patent US20150098955A1
